system-under-test: Endonuclease 4 (Escherichia coli (strain K12)) (UniProt P0A6C1)
assay-name: Counterscreen for APE1 Inhibitors: qHTS Validation Assay for Inhibitors of Endonuclease IV (AID 1708)
conditions: E. coli endonuclease IV, DNA cleavage fluorescence; series mostly up to 57.1 µM
Inconclusive results are not listed. Calls of active or inactive are those of the source. Calls follow the shape of the dose curve; as a rule, active = well fitted inhibition curve with a large enough effect; inconclusive = small, poorly fitted or top-dose-only effect; inactive = no such curve, though single readings can be large or run the other way.

molecule: C[C@](N)(Cc1ccc(O)cc1)C(=O)O
outcome: inactive
//
molecule: OCc1cc(C(O)CNCCCCCCOCCCCc2ccccc2)ccc1O (stereo not drawn)
outcome: inactive
//
molecule: CC(=O)OCC(=O)[C@@]1(O)CC[C@H]2[C@@H]3CCC4=CC(=O)CC[C@]4(C)[C@H]3C(=O)C[C@@]21C
outcome: inactive

###

assay-name: qHTS of pediatric cancer cell lines to identify multiple opportunities for drug repurposing: Primary screen for Rh18 cells (AID 1347102); also: nearly all actives have a fitted effect of over 65% in size
conditions: Rh18 rhabdomyosarcoma viability, CellTiter-Glo luminescence, 48 h; series mostly up to 46 µM
Inconclusive results are not listed. Activity calls are given as the source filed them. Calls follow the shape of the dose curve; as a rule, active = well fitted cell-killing curve with a large enough effect; inconclusive = small, poorly fitted or top-dose-only effect; inactive = flat fitted curve, though single readings scatter.
Choose one outcome from this list and give only that: T (active), F (inactive)

Query: Check the results log: what was the call for C[C@]12CC[C@@H]3c4ccc(O)cc4CC[C@H]3[C@@H]1CC[C@@H]2OC(=O)CCC1CCCC1 ?
Response: F

Query: Check the results log: what was the call for CC[C@H]1CN2CCc3cc(OC)c(OC)cc3[C@@H]2C[C@@H]1C[C@H]1NCCc2cc(OC)c(OC)cc21 ?
Response: T

Query: Check the results log: what was the call for O=c1cc[nH]c(=S)[nH]1 ?
Response: F

Query: Check the results log: what was the call for CC(C)(C)C(=O)C(Oc1ccc(Cl)cc1)n1ccnc1 (configuration not stated) ?
Response: F

Query: Check the results log: what was the call for O=c1[nH]cnc2c1ncn2[C@@H]1O[C@H](CO)[C@@H](O)[C@H]1O ?
Response: F

Query: Check the results log: what was the call for CN1[C@@H]2CC[C@H]1CC(OC(=O)C(O)c1ccccc1)C2 (some centres not stated) ?
Response: F

Query: Check the results log: what was the call for O=C(O)[C@@H]1CSCN1 ?
Response: F

Query: Check the results log: what was the call for CC1(C)[C@@H]2CC[C@@]1(C)C(=O)C2 ?
Response: F

Query: Check the results log: what was the call for O=C1c2c(O)cccc2Cc2cccc(O)c21 ?
Response: F

Query: Check the results log: what was the call for CC(=O)OCC(=O)[C@@]1(O)CC[C@H]2[C@@H]3CCC4=CC(=O)CC[C@]4(C)[C@H]3C(=O)C[C@@]21C ?
Response: F

Query: Check the results log: what was the call for CCCn1cnc2c1c(=O)n(CCCCC(C)=O)c(=O)n2C ?
Response: F

Query: Check the results log: what was the call for Cc1cccc(C)c1NC(=O)CN(CC(=O)O)CC(=O)O ?
Response: F

Query: Check the results log: what was the call for O=C(O)CN1C(=O)c2cccc3cccc(c23)C1=O ?
Response: F

Query: Check the results log: what was the call for O=C1O[C@H]([C@@H](O)CO)C(O)=C1O ?
Response: F

Query: Check the results log: what was the call for C[C@H](NC(CCc1ccccc1)C(=O)O)C(=O)N1CCC[C@H]1C(=O)O (some centres not stated) ?
Response: F

Query: Check the results log: what was the call for CC1(C)S[C@@H]2[C@H](NC(=O)Cc3ccccc3)C(=O)N2[C@H]1C(=O)O (tested in a mixture with another compound) ?
Response: F

Query: Check the results log: what was the call for NS(=O)(=O)c1cc2c(cc1Cl)NC(CSCc1ccccc1)=NS2(=O)=O ?
Response: F

Query: Check the results log: what was the call for CC(C)(C)NCC(O)COc1ccc(NC(=O)NC2CCCCC2)cc1 (configuration not stated) ?
Response: F

Query: Check the results log: what was the call for NCC(=O)CCC(=O)O ?
Response: F

Query: Check the results log: what was the call for CC(=O)c1ccc2c(c1)N(CCCN(C)C)c1ccccc1S2 ?
Response: F

Query: Check the results log: what was the call for NC(=O)c1ncn([C@@H]2O[C@H](CO)[C@@H](O)[C@H]2O)n1 ?
Response: F

Query: Check the results log: what was the call for NC(=O)N/N=C/c1ccc([N+](=O)[O-])o1 ?
Response: F

Values compiled from PubChem BioAssay (NCATS).
